Values were extracted from patent US11236047B2.

- Target: MDM2-p53 interaction (Homo sapiens (Human), UniProt Q00987)
- Sequence (Q00987 whole entry): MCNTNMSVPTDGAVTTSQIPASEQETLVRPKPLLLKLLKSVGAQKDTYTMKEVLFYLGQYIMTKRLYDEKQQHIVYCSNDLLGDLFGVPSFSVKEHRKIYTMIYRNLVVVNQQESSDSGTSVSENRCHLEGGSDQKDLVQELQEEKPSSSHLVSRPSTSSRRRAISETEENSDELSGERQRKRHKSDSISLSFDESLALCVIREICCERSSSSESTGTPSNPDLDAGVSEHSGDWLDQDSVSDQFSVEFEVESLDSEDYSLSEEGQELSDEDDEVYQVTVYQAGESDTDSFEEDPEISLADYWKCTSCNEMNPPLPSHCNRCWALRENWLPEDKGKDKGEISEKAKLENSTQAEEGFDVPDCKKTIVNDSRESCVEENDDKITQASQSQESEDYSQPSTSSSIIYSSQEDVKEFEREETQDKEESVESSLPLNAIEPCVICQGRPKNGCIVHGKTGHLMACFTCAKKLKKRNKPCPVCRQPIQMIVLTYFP
- Condition parameters: read-out: MDM2 % inhibition @0.0010
So basically: inhibition at 0.001 µM at 80% or higher? That is condition met. Lower than 80%? That is condition not met.

CCC(O)(c1cc(F)c2c(c1)C(=O)N(Cc1ncc(Cl)cn1)[C@@]2(O[C@H]1CCOC1)c1ccc(Cl)cc1)c1cn(C)cn1 (single isomer, unassigned) :: condition not met
CCC(O)(c1cc(F)c2c(c1)C(=O)N(Cc1ncc(Cl)cn1)[C@@]2(OCC1(C#N)CC1)c1ccc(Cl)cc1)C1(F)CCN(C)CC1 (single isomer, unassigned) :: condition met
CCC(O)(c1cc(F)c2c(c1)C(=O)N(Cc1ccc(C#N)cn1)[C@@]2(OCCO)c1ccc(Cl)cc1)C1(F)CCOCC1 (single isomer, unassigned) :: condition not met
CCC(O)(c1cc(F)c2c(c1)C(=O)N(Cc1ncc(Cl)cn1)[C@@]2(O[C@H]1CCOC1)c1ccc(Cl)cc1)C1(F)CCN(C)CC1 (single isomer, unassigned) :: condition not met

----------
- Tested on: SN40R2 cells
- Experiment: Protocol B: SN40R2 CellTiter-Glo luminescent cell viability assay
- Condition parameters: read-out: SN40R2 % inhibition at 10
Measured property: inhibition at 10 µM (%)

O=C1c2cc(C(O)C3CCS(=O)(=O)CC3)cc(F)c2[C@](OCC2(O)CC2)(c2ccc(Cl)cc2)N1Cc1ncc(Cl)cn1 (some centres unmarked) :: 2
CC(O)(c1cc(F)c2c(c1)C(=O)N(Cc1ccc(C#N)cn1)[C@@]2(OC[C@H](O)CF)c1ccc(Cl)cc1)C1(F)CCOCC1 (some centres unmarked) :: 4
CCC(O)(c1cc(F)c2c(c1)C(=O)N(Cc1ccc(C#N)cn1)[C@@]2(O[C@@H]1CCOC1)c1ccc(Cl)cc1)c1cn(C)cn1 (some centres unmarked) :: 4
Cn1cnc(C(C)(O)c2cc(F)c3c(c2)C(=O)N(Cc2ncc(C#N)cn2)[C@@]3(OCC2(F)COC2)c2ccc(Cl)cc2)c1 (some centres unmarked) :: 2
CCC(O)(c1cc(F)c2c(c1)C(=O)N(Cc1ncc(Cl)cn1)[C@@]2(OC)c1ccc(Cl)cc1)C1CCNCC1 (some centres unmarked) :: 15
Cn1cnc(C(O)(c2cc(F)c3c(c2)C(=O)N(Cc2ccc(C#N)cn2)[C@@]3(O[C@H]2CCOC2)c2ccc(Cl)cc2)C2CC2)c1 (some centres unmarked) :: 7
CC[C@](O)(c1cc(F)c2c(c1)C(=O)N(Cc1ncc(Cl)cn1)[C@@]2(OCCO)c1ccc(Cl)cc1)C1(F)CCOCC1 :: 11
CCC(O)(c1cc(F)c2c(c1)C(=O)N(Cc1ccc(C#N)cn1)[C@@]2(OCC1(CO)CC1)c1ccc(Cl)cc1)c1cn(C)cn1 (single isomer, unassigned) :: 6
CC[C@@](O)(c1cc(F)c2c(c1)C(=O)N(Cc1ncc(Cl)cn1)[C@@]2(OC[C@@H](C)O)c1ccc(Cl)cc1)C1CCN(C)CC1 :: 1
CCC(O)(c1cc(F)c2c(c1)C(=O)N(Cc1ccc(C#N)cn1)[C@@]2(O[C@H]1CCOC1)c1ccc(Cl)cc1)C1(F)CCOCC1 (some centres unmarked) :: 16
CCC(O)(c1cc(F)c2c(c1)C(=O)N(Cc1ncc(C#N)cn1)[C@@]2(OC1CCC(O)C1)c1ccc(Cl)cc1)c1cn(C)cn1 (some centres unmarked) :: 6
CC[C@@](O)(c1cc(F)c2c(c1)C(=O)N(Cc1ncc(Cl)cn1)[C@@]2(OCCO)c1ccc(Cl)cc1)C1CCN(C)CC1 :: 1
CC[C@@](O)(c1cc(F)c2c(c1)C(=O)N(Cc1ncc(Cl)cn1)[C@@]2(OC)c1ccc(Cl)cc1)C1CCN(CCO)CC1 (single isomer, unassigned) :: 33
CC(=O)N1CCC(C(C)(O)c2cc(F)c3c(c2)C(=O)N(Cc2ncc(Cl)cn2)[C@@]3(O[C@H]2C[C@@H](O)C2)c2ccc(Cl)cc2)CC1 (single isomer, unassigned) :: 7
CCC(O)(CN1CCN(C)CC1)c1cc(F)c2c(c1)C(=O)N(Cc1ncc(Cl)cn1)[C@@]2(O[C@H]1CCOC1)c1ccc(Cl)cc1 (single isomer, unassigned) :: 24
C=CC(O)(c1cc(F)c2c(c1)C(=O)N(Cc1ccc(C#N)cn1)[C@@]2(O[C@H]1C[C@@H](O)C1)c1ccc(Cl)cc1)c1cnn(C)c1 (single isomer, unassigned) :: 8
CCC(O)(c1cc(F)c2c(c1)C(=O)N(Cc1ccc(C#N)cn1)[C@@]2(OCCO)c1ccc(Cl)cc1)c1cn(C)cn1 (some centres unmarked) :: 9
CCC(O)(c1cc(F)c2c(c1)C(=O)N(Cc1ccc(C#N)cn1)[C@@]2(O[C@H]1CCOC1)c1ccc(Cl)cc1)c1ccn(C)c(=O)c1 (some centres unmarked) :: 2
C=C(CO)CO[C@]1(c2ccc(Cl)cc2)c2c(F)cc(C(O)(CC)c3cn(C)cn3)cc2C(=O)N1Cc1ccc(C#N)cn1 (some centres unmarked) :: 4
CC(O)(c1cc(F)c2c(c1)C(=O)N(Cc1ccc(C#N)cn1)[C@@]2(O[C@H]1CCOC1)c1ccc(Cl)cc1)C1(F)CCOCC1 (some centres unmarked) :: 4
CCC(O)(CN1CC[C@@H](O)C1)c1cc(F)c2c(c1)C(=O)N(Cc1ncc(Cl)cn1)[C@@]2(O[C@H]1CCOC1)c1ccc(Cl)cc1 (single isomer, unassigned) :: 9
CCC(O)(c1cc(F)c2c(c1)C(=O)N(Cc1ccc(C#N)cn1)[C@@]2(OCCO)c1ccc(Cl)cc1)c1cscn1 (single isomer, unassigned) :: 5
CCC(O)(c1cc(F)c2c(c1)C(=O)N(Cc1ccc(C#N)cn1)[C@@]2(OCC1(F)COC1)c1ccc(Cl)cc1)c1cn(C)cn1 (some centres unmarked) :: 0
